target: T1, human CD3E&G complex (Sino Biological Inc., CT041-H0305H) (human, UniProt P07766 23-126; P09693 23-116); test: BLI, antibody on sensor
T1 construct: bought heterodimer; also called human CD3E&G antigen
T1 sequence (P07766 23-126, chain 1 of 2): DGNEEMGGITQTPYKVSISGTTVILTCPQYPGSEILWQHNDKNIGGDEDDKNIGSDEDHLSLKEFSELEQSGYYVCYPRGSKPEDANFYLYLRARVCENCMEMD
T1 sequence (P09693 23-116, chain 2 of 2): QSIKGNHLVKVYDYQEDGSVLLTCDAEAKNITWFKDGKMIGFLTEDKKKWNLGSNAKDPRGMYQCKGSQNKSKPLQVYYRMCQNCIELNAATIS
Here the recorded koff is given for each entry.
// return numeric value only (unit: s⁻¹, not printed)

Recorded koff, per entry:
# binder, unit_info, measured_number
records = [
    ("hzsp34.106 (antibody, human IgG1, lambda, L234A L235A, V domains shown, CDR mutant of hzsp34.24; IgG1 L234A L235A, lambda) VH: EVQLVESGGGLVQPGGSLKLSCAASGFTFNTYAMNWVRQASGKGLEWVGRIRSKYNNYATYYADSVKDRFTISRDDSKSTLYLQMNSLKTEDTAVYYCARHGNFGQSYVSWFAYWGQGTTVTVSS VL: QAVVTQEPSLTVSPGGTVTLTCRSSTGAVTTSGYANWVQQKPGQAPRGLIGGTNKRAPGVPARFSGSLLGDKAALTLLGAQPEDEAEYYCALWYSNLWVFGQGTKLTVLG", "s⁻¹", 0.00237),
    ("hzsp34.85 (antibody, human IgG1, lambda, L234A L235A, V domains shown, CDR mutant of hzsp34.24; IgG1 L234A L235A, lambda) VH: EVQLVESGGGLVQPGGSLKLSCAASGFTFNTYAMNWVRQASGKGLEWVGRIRSKYNGYATYYADSVKDRFTISRDDSKSTLYLQMNSLKTEDTAVYYCARHGNFGQSYVSWFAYWGQGTTVTVSS VL: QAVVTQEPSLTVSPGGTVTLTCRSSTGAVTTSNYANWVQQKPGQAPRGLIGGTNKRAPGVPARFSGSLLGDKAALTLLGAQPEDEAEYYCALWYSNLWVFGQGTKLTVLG", "s⁻¹", 0.00201),
]

Consider the record given below.
Prompt: Can you look up the measured koff of hzsp34.110 (antibody, human IgG1, lambda, L234A L235A, V domains shown, CDR mutant of hzsp34.24; IgG1 L234A L235A, lambda) VH: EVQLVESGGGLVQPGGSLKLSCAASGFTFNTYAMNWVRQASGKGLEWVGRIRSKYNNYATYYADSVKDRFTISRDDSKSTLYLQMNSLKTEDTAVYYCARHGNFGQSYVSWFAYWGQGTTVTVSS VL: QAVVTQEPSLTVSPGGTVTLTCRSSTGAVTTSNYANWVQQKPGQAPRGLIGGTNKRAPGVPARFSGSLLGDKAALTLLGAQPEDEAEYYCALWYSGLWVFGQGTKLTVLG for me?
Completion: 0.00188
